Target: 5-lipoxygenase (Rattus norvegicus, UniProt P12527)
Construct: supernatant fraction of Rat Basophilic Leukemia Cell Homogenate (RBL-1) serves as a 5-lipoxygenase enzyme source; endogenous in cells; host or cells: RBL-1 (rat basophilic leukemia) cells, 100,000 x g supernatant of the homogenate
Test: Inhibition of 5-lipoxygenase, in vitro (5-HETE synthesis, RBL-1 100,000 x g supernatant)
Type: biochemical
Conditions: Rat Basophilic Leukemia Cell Homogenate (RBL-1) supernatant; [1-14C]-arachidonic acid and Ca++; several values = results from additional tests; read-out: 5-Lipoxygenase Inhibition IC50
Protocol: The compounds of the invention are evaluated with respect to 5-lipoxygenaseinhibition according to the following assay procedure. Inhibition of 5-lipoxygenase, in vitro : anti-inflammatory, anti-allergy activities. The 100,000 x g supernatant fraction of Rat Basophilic Leukemia Cell Homogenate (RBL-1) serves as a 5-lipoxygenase enzyme source. […] The product of 5-lipoxygenase, 5-hydroxyeicosatetraenoic acid (5-HETE), is separated by thin-layer chromatography and measured by radioactivity. […]
assay-endpoint: IC50 (µM)
Provide only the numeric value, understood in µM.

Item CCOC(=O)/C(=C/c1ccc(Cl)cc1)C(C)=O has what recorded IC50?
47

Item CCCCCCc1ccc(C=C(C(=O)OCC)C(=O)OCC)cc1 has what recorded IC50?
100

* * *

Listed next: entries and their corresponding IC50.
Target: 5-lipoxygenase (Rattus norvegicus)
Construct: supernatant fraction of Rat Basophilic Leukemia Cell Homogenate (RBL-1) serves as a 5-lipoxygenase enzyme source; endogenous in cells; host or cells: RBL-1 (rat basophilic leukemia) cells, 100,000 x g supernatant of the homogenate
Sequence (P12527 1-673): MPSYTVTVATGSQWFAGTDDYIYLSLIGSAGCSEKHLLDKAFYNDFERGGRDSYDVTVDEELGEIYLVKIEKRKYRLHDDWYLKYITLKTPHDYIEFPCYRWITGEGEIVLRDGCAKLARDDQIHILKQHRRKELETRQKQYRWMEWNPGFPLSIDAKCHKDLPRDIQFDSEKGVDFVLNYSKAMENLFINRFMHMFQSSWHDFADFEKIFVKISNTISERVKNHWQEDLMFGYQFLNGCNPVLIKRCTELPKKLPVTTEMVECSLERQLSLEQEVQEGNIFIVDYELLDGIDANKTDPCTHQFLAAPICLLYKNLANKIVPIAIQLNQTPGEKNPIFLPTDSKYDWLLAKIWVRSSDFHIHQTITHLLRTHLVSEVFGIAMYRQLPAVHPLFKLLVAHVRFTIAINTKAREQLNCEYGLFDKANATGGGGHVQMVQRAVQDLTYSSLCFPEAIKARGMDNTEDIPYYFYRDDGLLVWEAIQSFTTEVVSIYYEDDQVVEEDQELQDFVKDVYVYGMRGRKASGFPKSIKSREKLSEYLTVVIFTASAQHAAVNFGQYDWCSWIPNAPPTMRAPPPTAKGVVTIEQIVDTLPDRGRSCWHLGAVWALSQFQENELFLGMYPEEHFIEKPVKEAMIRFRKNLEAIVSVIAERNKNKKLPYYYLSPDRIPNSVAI
Assay: Inhibition of 5-lipoxygenase, in vitro (5-HETE synthesis, RBL-1 100,000 x g supernatant)
Format: biochemical
Conditions: Rat Basophilic Leukemia Cell Homogenate (RBL-1) supernatant; [1-14C]-arachidonic acid and Ca++; several values = results from additional tests; read-out: 5-Lipoxygenase Inhibition IC50
For clarity, give the value followed by its unit.

Examples from the recorded data:
[
  {
    "smi": "CCCCCCc1ccc(/C=C/C(C)=O)cc1",
    "assay-endpoint": "IC50",
    "experimental-result": "100 µM"
  },
  {
    "smi": "CCOC(=O)/C(=C/c1ccc([N+](=O)[O-])cc1)C(C)=O",
    "assay-endpoint": "IC50",
    "experimental-result": "74 µM"
  }
]

// moving on: another record for IC50
Item CCOC(=O)/C(=C\c1ccc(Cl)cc1)C(C)=O has what recorded IC50?
56 µM
